Molecular target: T1, cynomolgus monkey PVRIG on FlpinCHO-cyno PVRIG cells (cynomolgus monkey, UniProt A0A2K5WVV8 41-322)
T1 construct: whole, on cells
T1 sequence: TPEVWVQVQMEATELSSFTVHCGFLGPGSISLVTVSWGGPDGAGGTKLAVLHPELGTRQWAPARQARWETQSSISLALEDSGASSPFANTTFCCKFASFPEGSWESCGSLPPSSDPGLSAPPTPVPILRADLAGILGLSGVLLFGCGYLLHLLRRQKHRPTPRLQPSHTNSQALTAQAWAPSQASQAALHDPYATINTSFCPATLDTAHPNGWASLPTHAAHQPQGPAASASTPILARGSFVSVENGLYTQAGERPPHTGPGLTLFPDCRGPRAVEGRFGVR
Assay: FACS, FlpinCHO-cyno PVRIG cells
AUC % to parental Ab values by entry
Give a bare numeral; the unit % is implied.

Example entries begin here.
binder: PVRIG-A50-H1e (Fc fusion, humanized variant of PVRIG-A50; also called VH1e; not shown: constant part not restated for the humanized forms; parents are VHH-hinge-CH2-CH3 of human IgG1; detected by anti-human) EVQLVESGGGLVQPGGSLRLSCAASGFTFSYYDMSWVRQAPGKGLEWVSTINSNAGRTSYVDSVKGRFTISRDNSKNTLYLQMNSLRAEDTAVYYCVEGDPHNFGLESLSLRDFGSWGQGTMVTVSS
measured-metric: AUC % to parental Ab
numeric-result: 92

binder: PVRIG-A118-H1 (Fc fusion, humanized variant of PVRIG-A118; also called A118.VH1; not shown: constant part not restated for the humanized forms; parents are VHH-hinge-CH2-CH3 of human IgG1; detected by anti-human) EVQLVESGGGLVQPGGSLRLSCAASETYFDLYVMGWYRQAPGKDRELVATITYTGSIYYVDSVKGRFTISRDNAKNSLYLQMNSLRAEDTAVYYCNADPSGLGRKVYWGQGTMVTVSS
measured-metric: AUC % to parental Ab
numeric-result: 18.5

binder: PVRIG-A105-H4 (Fc fusion, humanized variant of PVRIG-A105; also called A105.VH4; not shown: constant part not restated for the humanized forms; parents are VHH-hinge-CH2-CH3 of human IgG1; detected by anti-human) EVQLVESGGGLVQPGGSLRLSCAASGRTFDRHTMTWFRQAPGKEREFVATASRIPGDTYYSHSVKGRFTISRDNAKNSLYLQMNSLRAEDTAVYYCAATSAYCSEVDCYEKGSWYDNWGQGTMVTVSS
measured-metric: AUC % to parental Ab
numeric-result: 91.8

binder: PVRIG-A50-H2a (Fc fusion, humanized variant of PVRIG-A50; also called A50.VH2a; not shown: constant part not restated for the humanized forms; parents are VHH-hinge-CH2-CH3 of human IgG1; detected by anti-human) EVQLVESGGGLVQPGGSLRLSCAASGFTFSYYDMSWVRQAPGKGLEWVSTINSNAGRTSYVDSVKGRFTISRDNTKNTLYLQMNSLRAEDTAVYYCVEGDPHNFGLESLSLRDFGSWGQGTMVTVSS
measured-metric: AUC % to parental Ab
numeric-result: 90.2

binder: PVRIG-A105-H1 (Fc fusion, humanized variant of PVRIG-A105; also called A105.VH1; not shown: constant part not restated for the humanized forms; parents are VHH-hinge-CH2-CH3 of human IgG1; detected by anti-human) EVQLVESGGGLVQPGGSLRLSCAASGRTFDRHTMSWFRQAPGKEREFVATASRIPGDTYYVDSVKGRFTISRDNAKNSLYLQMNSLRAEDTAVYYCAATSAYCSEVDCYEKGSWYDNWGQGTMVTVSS
measured-metric: AUC % to parental Ab
numeric-result: 93

Please find the next binder below.
Asked: # return recorded AUC % to parental Ab for entry PVRIG-A50 (Fc fusion, heavy chain antibody VHH-hinge-CH2-CH3, human IgG1 constant part; also called PVRIG-50; not shown: human IgG1 hinge-CH2-CH3) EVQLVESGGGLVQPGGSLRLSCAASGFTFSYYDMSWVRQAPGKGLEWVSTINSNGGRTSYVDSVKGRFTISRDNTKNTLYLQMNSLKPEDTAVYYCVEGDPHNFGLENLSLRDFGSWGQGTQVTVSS
Given back: 100

Data origin: patent US20240343803A1
